experimentNotes: pharmacokinetics of Danshensu after auricular vein injection
Format: in vivo, rabbits
testConditions: rabbit, in vivo, iv; 30 mg/kg i.v., 5 rabbits; read-out: biological half-life t1/2
resultType: half-life

Request: What half-life value was documented for this compound, O=C(O)[C@H](O)Cc1ccc(O)c(O)c1 [Danshensu, D(+) β-(3,4-dihydroxyphenyl) lactic acid] ?
Result: 16.6 min
